- Test system: C-X-C chemokine receptor type 2 (Homo sapiens) (UniProt P25025)
- Measurement description: Antagonist activity at CXCR2 (unknown origin) at 10 uM by calcium flux assay relative to control
- Type: functional
- Assay conditions: filed as antagonist
Exercise: state measured inhibition for each of the molecules provided.
Numbers only, in %.

Sample answers from the record:
>  <Cpd smiles>
Cc1cc(=O)n(-c2ccc(C(F)(F)F)cc2)nc1C(=O)Nc1cccc(C(=O)N(C)C)c1O

>  <Test system>
C-X-C chemokine receptor type 2 (Homo sapiens) (UniProt P25025)

>  <Property name>
inhibition

>  <Experimental result>
69.4

$$$$
>  <Cpd smiles>
Cc1cccc(-n2nc(C(=O)Nc3cccc(C(=O)N(C)C)c3O)n(C)c2=O)c1

>  <Test system>
C-X-C chemokine receptor type 2 (Homo sapiens) (UniProt P25025)

>  <Property name>
inhibition

>  <Experimental result>
43.8

$$$$
>  <Cpd smiles>
C#Cc1ccc(-n2nc(C(=O)Nc3cccc(C(=O)N(C)C)c3O)n(C)c2=O)cc1

>  <Test system>
C-X-C chemokine receptor type 2 (Homo sapiens) (UniProt P25025)

>  <Property name>
inhibition

>  <Experimental result>
49.2

$$$$
>  <Cpd smiles>
Cc1ccccc1-n1nc(C(=O)Nc2cccc(C(=O)N(C)C)c2O)n(C)c1=O

>  <Test system>
C-X-C chemokine receptor type 2 (Homo sapiens) (UniProt P25025)

>  <Property name>
inhibition

>  <Experimental result>
43.8

$$$$

Please look at the following molecule next.
**Query** Entry "CN(C)C(=O)c1cccc(NC(=O)c2nn(-c3ccc(C(C)(C)C)cc3)c(=O)n2C)c1O" : reported inhibition = ?
**Result** 40.9

---

Exercise: state measured inhibition for each of the compounds provided.
- Test system: C-X-C chemokine receptor type 2 (Homo sapiens)
- Sequence (whole entry): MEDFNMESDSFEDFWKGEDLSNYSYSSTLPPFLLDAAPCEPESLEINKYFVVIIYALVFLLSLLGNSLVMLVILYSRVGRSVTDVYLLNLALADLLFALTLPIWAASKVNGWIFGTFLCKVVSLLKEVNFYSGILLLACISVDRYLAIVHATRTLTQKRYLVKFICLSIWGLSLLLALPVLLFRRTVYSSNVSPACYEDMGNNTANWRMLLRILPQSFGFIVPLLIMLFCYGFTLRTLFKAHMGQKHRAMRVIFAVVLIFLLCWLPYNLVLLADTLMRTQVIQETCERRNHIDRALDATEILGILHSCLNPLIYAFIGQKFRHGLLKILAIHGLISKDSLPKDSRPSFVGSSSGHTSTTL
- Measurement description: Antagonist activity at CXCR2 (unknown origin) at 10 uM by calcium flux assay relative to control
- Assay type: functional
Answers are plain numbers, in %.

Sample answers from the record:
>  <Cpd smiles>
CN(C)C(=O)c1cccc(NC(=O)c2nn(-c3ccc(Cl)cc3)c(=O)n2C)c1O

>  <Experimental result>
27.2

$$$$
>  <Cpd smiles>
Cc1cc(=O)n(-c2ccc(F)cc2)nc1C(=O)Nc1cccc(C(=O)N(C)C)c1O

>  <Experimental result>
-0.8

$$$$
>  <Cpd smiles>
C#Cc1ccc(-n2nc(C(=O)Nc3cccc(C(=O)N(C)C)c3O)c(C)cc2=O)cc1

>  <Experimental result>
1.5

$$$$
>  <Cpd smiles>
CN(C)C(=O)c1cccc(NC(=O)c2nn(-c3ccc(F)cc3)c(=O)n2C)c1O

>  <Experimental result>
12.7

$$$$
>  <Cpd smiles>
Cc1cc(=O)n(-c2ccccc2)nc1C(=O)Nc1cccc(C(=O)N(C)C)c1O

>  <Experimental result>
3.2

$$$$

Parameters: items (list). Returns: inhibition for each item.
1. CN(C)C(=O)c1cccc(NC(=O)c2nn(-c3ccc(Cl)cc3Cl)c(=O)n2C)c1O
2. Cc1cc(=O)n(-c2ccc(Cl)c(Cl)c2)nc1C(=O)Nc1cccc(C(=O)N(C)C)c1O
3. Cc1cc(=O)n(-c2ccc(C(C)(C)C)cc2)nc1C(=O)Nc1cccc(C(=O)N(C)C)c1O

**Result**
[26.6, 10.9, 20.4]

**Query** Entry "Cc1ccc(-n2nc(C(=O)Nc3cccc(C(=O)N(C)C)c3O)n(C)c2=O)cc1" : reported inhibition = ?
**Result** 24.3

The reported measurements were obtained from ChEMBL document CHEMBL5032521.
